Target: T1, 4H3628-AA
T1 chain: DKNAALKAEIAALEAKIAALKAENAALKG
Assay: two-hybrid library CCmax;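 note: natural log of median RNA to DNA barcode read ratio; higher means stronger binding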
Details: mean of both orientations
readout-kind: interaction score

Below are worked cases with known answers.
>  <binder>
DEIAALKAKNAALKAKIAALEAKNAALKG [4H1000-AA]

>  <readout-kind>
interaction score

>  <quantitative-result>
-1.21

$$$$
>  <binder>
DENAALEAKIAALKAKIAALKAKNAALEG [4H1391-AA]

>  <readout-kind>
interaction score

>  <quantitative-result>
0.211

$$$$
>  <binder>
DEIAALEAENAALEAKNAALKAKIAALEG [4H189-AA]

>  <readout-kind>
interaction score

>  <quantitative-result>
-1.64

$$$$
>  <binder>
DKNAALEAKIAALKAKNAALEAKIAALKG [4H3446-AA]

>  <readout-kind>
interaction score

>  <quantitative-result>
-1.96

$$$$
>  <binder>
DEIAALEAENAALEAENAALEAEIAALKG [4H146-AA]

>  <readout-kind>
interaction score

>  <quantitative-result>
-1.8

$$$$

I = DKIAALKAKNAALEAEIAALEAENAALKG [4H2948-AA]
II = DKNAALEAEIAALEAKNAALEAEIAALEG [4H3121-AA]
Incoming: Lowest interaction score? choose I or II Lab note: record the label of whichever item you select.
Outgoing: II

The origin of these recorded values is paper PMC10397247.
